Reported % degradation of peptidomimetics in 24 h when incubated with human plasma values follow for various compounds
Assay: Stability in human plasma
Format: in vitro ADME
Settings: 2 μM peptidomimetic, pooled human plasma, 37° C., 24 h
Answer in %, number only, no unit symbol.

Query block: Item under review: CCc1cc(OC)ccc1-c1ccc(CC(NC(=S)[C@H](CC(=O)O)NC(=O)[C@H](CO)NC(=O)[C@@H](NC(=O)C(C)(Cc2ccccc2F)NC(=O)[C@@H](NC(=O)CNC(=O)C(CCC#N)NC(=O)C(C)(C)NC(=O)[C@@H](N)Cc2c[nH]cn2)[C@H](C)O)[C@H](C)O)C(=S)NC(CCCc2ccccc2F)C(N)=O)cc1 (single isomer, unassigned) . Reported % degradation of peptidomimetics in 24 h when incubated with human plasma?
Result block: 00

New cases:
Query block: Any idea what % degradation of peptidomimetics in 24 h when incubated with human plasma was measured for CCc1cc(OC)ccc1-c1ccc(CC(NC(=O)[C@H](CC(=O)O)NC(=O)[C@H](CO)NC(=O)[C@@H](NC(=O)[C@H](Cc2ccccc2)NC(=O)[C@@H](NC(=O)CNC(=O)C(CCC#N)NC(=O)C(C)(C)NC(=O)[C@@H](N)Cc2c[nH]cn2)[C@@H](C)O)[C@@H](C)O)C(=O)NC(CCCc2ccc(C(F)(F)F)cc2F)C(N)=O)cc1 (single isomer, unassigned) ?
Result block: 00

Query block: Given the compound CCc1cc(OC)ccc1-c1ccc(CC(C(=O)N(C)C(CCCc2ccccc2)C(N)=O)N(C)C(=O)[C@H](CC(=O)O)N(C)C(=O)[C@H](CO)NC(=O)[C@@H](NC(=O)C(C)(Cc2ccccc2F)NC(=O)[C@@H](NC(=O)CNC(=O)C(CCC#N)NC(=O)C(C)(C)NC(=O)[C@@H](N)Cc2c[nH]cn2)[C@H](C)O)[C@H](C)O)cc1 (single isomer, unassigned) , what is its reported % degradation of peptidomimetics in 24 h when incubated with human plasma?
Result block: 75

* * *

Test: Stability in simulated intestinal fluid
Assay type: in vitro ADME
Conditions: 2 μM peptidomimetic, simulated intestinal fluid pH 7.5, 37° C., 24 h
Starred links: 1 amine or outer side, 2 acyl side, 3 side chain; linkers in the order of their positions; H or OH if unused. Non-standard residues stand in square brackets, D forms with d. Residues, ends and D or L forms follow the SMILES beside them. ξ: configuration not given here. ξBip(2'-Et-4'-OMe) = CCc1cc(OC)ccc1-c1ccc(CC(N)C(=O)O)cc1; X2 = O=C(C(CCCc1ccccc1Cl)N[*:1])[*:2]; Ac3c = NC1(C(=O)O)CC1
measurement.kind: % degradation of peptidomimetics in 24 h when incubated with simulated intestinal fluid (%)
// units = %; emit number, no label

A selection of reference data follows.
Query block: Entry CCc1cc(OC)ccc1-c1ccc(CC(NC(=O)[C@H](CC(=O)O)NC(=O)[C@H](CO)NC(=O)[C@@H](NC(=O)[C@H](Cc2ccccc2)NC(=O)[C@@H](NC(=O)CNC(=O)C(CCC#N)NC(=O)C(C)(C)NC(=O)[C@@H](N)Cc2c[nH]cn2)[C@@H](C)O)[C@@H](C)O)C(=O)NC(CCCc2ccc(F)cc2F)C(N)=O)cc1 (single isomer, unassigned) [compound 78] : reported % degradation of peptidomimetics in 24 h when incubated with simulated intestinal fluid = ?
Result block: 100

Query block: Which value of % degradation of peptidomimetics in 24 h when incubated with simulated intestinal fluid has been reported for CCc1cc(OC)ccc1-c1ccc(CC(NC(=O)[C@H](CC(=O)O)NC(=O)[C@H](CO)NC(=O)[C@@H](NC(=O)C(C)(Cc2ccccc2F)NC(=O)[C@@H](NC(=O)CNC(=O)C(CCC#N)NC(=O)C(C)(C)NC(=O)[C@@H](N)Cc2c[nH]cn2)[C@H](C)O)[C@@H](C)O)C(=O)NC(CCCc2ccccc2F)C(N)=O)cc1 (single isomer, unassigned) [compound 112] in the records?
Result block: 00

Query block: Query: % degradation of peptidomimetics in 24 h when incubated with simulated intestinal fluid; subject: CCc1cc(OC)ccc1-c1ccc(CC(C(=O)N(C)C(CCCc2ccccc2F)C(N)=O)N(C)C(=O)[C@H](CC(=O)O)NC(=O)[C@H](CO)NC(=O)[C@@H](NC(=O)C(C)(Cc2ccccc2F)NC(=O)[C@@H](NC(=O)CNC(=O)C(CCC#N)NC(=O)C(C)(C)NC(=O)[C@@H](N)Cc2c[nH]cn2)[C@H](C)O)[C@H](C)O)cc1 (single isomer, unassigned) [compound 144]
Result block: 43

More entries:
Query block: Reported % degradation of peptidomimetics in 24 h when incubated with simulated intestinal fluid, compound CCc1cc(OC)ccc1-c1ccc(CC(NC(=O)[C@H](CC(=O)O)NC(=O)[C@H](CO)NC(=O)[C@@H](NC(=O)[C@H](Cc2ccccc2)NC(=O)[C@@H](NC(=O)CNC(=O)[C@H](CCC(N)=O)NC(=O)C2(NC(=O)[C@@H](N)Cc3c[nH]cn3)CC2)[C@@H](C)O)[C@@H](C)O)C(=O)NC(CCCc2ccccc2Cl)C(N)=O)cc1 (stereo partly drawn) [compound 74] (H-H[Ac3c]QGTFTSD[ξBip(2'-Et-4'-OMe)][X2]-NH2) : ____
Result block: 100

Query block: Please look up its % degradation of peptidomimetics in 24 h when incubated with simulated intestinal fluid: CCc1cc(OC)ccc1-c1ccc(CC(NC(=O)[C@H](CC(=O)O)NC(=O)[C@H](CO)NC(=O)[C@@H](NC(=O)[C@H](Cc2ccccc2)NC(=O)[C@@H](NC(=O)CNC(=O)[C@H](CCC(N)=O)NC(=O)C(C)(C)NC(=O)[C@@H](N)Cc2c[nH]cn2)[C@@H](C)O)[C@@H](C)O)C(=O)NC(CCCc2ccc(OC)cc2Cl)C(N)=O)cc1 (single isomer, unassigned) [compound 68]
Result block: 46

Query block: Fill in: % degradation of peptidomimetics in 24 h when incubated with simulated intestinal fluid of CCc1cc(OC)ccc1-c1ccc(CC(NC(=O)[C@H](CC(=O)O)NC(=O)[C@H](CO)NC(=O)[C@@H](NC(=O)[C@H](Cc2ccccc2)NC(=O)[C@@H](NC(=O)CNC(=O)C(CCC#N)NC(=O)C(C)(C)NC(=O)[C@@H](N)Cc2c[nH]cn2)[C@@H](C)O)[C@@H](C)O)C(=O)NC(CCCc2ccccc2F)C(N)=O)cc1 (single isomer, unassigned) [compound 77] is ___
Result block: 100
